# test.method.notes: in vivo
# Parameters: species or system cynomolgus monkeys
# experimental.context: both sexes, cynomolgus monkey, po, 300 mg
Starred links: 1 amine or outer side, 2 acyl side, 3 side chain; linkers in the order of their positions; H or OH if unused. Non-standard residues stand in square brackets, D forms with d. Groups on a side chain read outwards from the residue. *: point of attachment. C18 diacid = O=C(O)CCCCCCCCCCCCCCCCC(=O)*; αMePhe(2-F) = C[C@](N)(Cc1ccccc1F)C(=O)O; γGlu = O=C(O)[C@H](CCC(=O)[*:2])N[*:1]; αMe4Pal = C[C@](N)(Cc1ccncc1)C(=O)O; αMeY = C[C@](N)(Cc1ccc(O)cc1)C(=O)O; 4Pal = N[C@@H](Cc1ccncc1)C(=O)O; αMeL = CC(C)C[C@](C)(N)C(=O)O; αMeS = C[C@](N)(CO)C(=O)O; Orn = NCCC[C@H](N)C(=O)O; AEEA = NCCOCCOCC(=O)O; Aib = CC(C)(N)C(=O)O
measured.quantity: Tmax
Give the number first and the unit second.

Look over these answered cases.
>  <substance>
H-Y[Aib]QGT[αMePhe(2-F)]TSD[4Pal][αMeS]ILLD[Orn]K([γGlu-γGlu-C18 diacid])AQ[Aib][Orn]FI[dE]YLIEGGPSSGEPPPSGTGE-NH2 [Example 548]

>  <test.value>
1.5 h

$$$$
>  <substance>
H-Y[Aib]QGTFTSD[4Pal]SQ[αMeL]LDKK([γGlu-γGlu-C18 diacid])AQ[αMe4Pal]AFIEYLIAGGPSSGAPPPSGE-NH2 [Example 883]

>  <test.value>
2 h

$$$$
>  <substance>
H-Y[Aib]QGT[αMePhe(2-F)]TSD[4Pal][αMeS]I[αMeL]LD[Orn]K([AEEA-γGlu-C18 diacid])AQ[αMe4Pal]EFI[dE][αMeY]LIEGGPSSGAPPPSGGGE-NH2 [Example 741]

>  <test.value>
3.75 h

$$$$
>  <substance>
H-Y[Aib]QGT[αMePhe(2-F)]TSD[4Pal]SI[αMeL]LD[Orn]K([γGlu-γGlu-C18 diacid])AQ[αMe4Pal][Orn]FI[dE][αMeY]LIEGGPSSGEPPPETE-NH2 [Example 686]

>  <test.value>
1 h

$$$$

Challenge: Please supply the value of reported Tmax for the item H-Y[Aib]QGT[αMePhe(2-F)]TSD[4Pal][αMeS]I[αMeL]LD[Orn]K([AEEA-γGlu-C18 diacid])AQ[αMe4Pal]EFI[dE][αMeY]LIEGGPSSGAPPPSGSE-NH2 [Example 712]
Response given: 3.75 h
